- ASSAY_OVERVIEW: NCI Yeast Anticancer Drug Screen. Data for the rad50 strain (AID 155);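 also: 0% = growth of vehicle-only cultures of the same strain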
- SETUP_CONDITIONS: S. cerevisiae rad50 strain growth inhibition; at 50.0 µM; stronger effect = higher value
About 79,000 compounds went through this panel and 15% of them were active in at least one assay; those are over-represented in the sample as a whole.
growth inhibition of 10% or higher: satisfied. Under 10%: not satisfied.

A selection of reference data follows.
[[record]]
compound = "COc1ccc(C(=O)Nc2c(N)ncnc2N)cc1"
label = "satisfied"

[[record]]
compound = "O=c1[nH]c2ccc(Br)cc2cc1Br"
label = "satisfied"

[[record]]
compound = "COc1cc2c3c(c1)SC(C)C(=O)N3CCN2 (configuration not stated)"
label = "not satisfied"

[[record]]
compound = "CCC(=O)Nc1ccccc1-c1ccccc1"
label = "satisfied"

[[record]]
compound = "NC(CCCNc1nc(O)c(-c2ccccc2)c(=O)[nH]1)C(=O)O (configuration not stated)"
label = "not satisfied"


Turning to the following compound.
Given O=C1CC(c2ccccc2)Oc2ccccc21 (configuration not stated) , state whether its growth inhibition is at least 10%.
not satisfied

====

- ASSAY_OVERVIEW: NCI Yeast Anticancer Drug Screen. Data for the mec2-1 strain (AID 157)
- SETUP_CONDITIONS: S. cerevisiae mec2-1 strain, at 50.0 µM, stronger effect = higher value
The panel holds about 79,000 compounds, 15% with a hit somewhere; the sample as a whole holds those more often. The source made the active and inactive calls. Rule as the data show it: active = growth inhibition above about 70%; inactive = the rest.
growth inhibition by entry:

[[record]]
molecule = "CC(N)C(=O)NC(C)P(=O)(O)O (centres undefined)"
result_value = "1.4% (inactive)"

[[record]]
molecule = "CCCCOc1ccc(Nc2c(C(=O)OCC)cnc3cc4c(cc23)OCO4)cc1"
result_value = "-9% (inactive)"

[[record]]
molecule = "CCn1c2ccc([N+](=O)[O-])cc2c2c([N+](=O)[O-])c(NC=O)ccc21"
result_value = "15.2% (inactive)"

[[record]]
molecule = "CCOC(=O)NCC(Cl)(Cl)Cl"
result_value = "0.25% (inactive)"

[[record]]
molecule = "CCC(O)(c1ccc(OC)cc1)C(c1ccccc1)c1ccccn1 (centres undefined)"
result_value = "-8.8% (inactive)"


Name the reported growth inhibition value associated with the molecule CCN(CC)C(=S)SCCC(N)=O
-13.8% (inactive)

Name the reported growth inhibition value associated with the molecule O=C(O)c1c(Br)c(Br)c(Br)c(Br)c1C1c2ccc(O)cc2Oc2cc(O)ccc21
25% (inactive)

Name the reported growth inhibition value associated with the molecule COc1ccc2[nH]c3c4c(c(C)cc3c2c1)OC(C)(C)C=C4
-5.75% (inactive)

Name the reported growth inhibition value associated with the molecule COc1ccc(C=O)c(C(=O)O)c1OC
-52.9% (inactive)

Name the reported growth inhibition value associated with the molecule CCOC(=O)/C(C(C)=O)=C1\C(=O)c2ccccc2-c2ccccc21
3.5% (inactive)

Name the reported growth inhibition value associated with the molecule Cc1nc2ccc(Cl)cc2c(-n2ccnc2)c1CCn1ccnc1
-4.6% (inactive)

Name the reported growth inhibition value associated with the molecule CCCC(C)OC(=O)CC(c1ccccc1)N1CCCCC1 (centres undefined)
-10.1% (inactive)

Name the reported growth inhibition value associated with the molecule COc1ccc(C(=O)/C(Br)=C\C(=O)O)cc1
24.4% (inactive)

Name the reported growth inhibition value associated with the molecule CN(C)S(=O)(=O)c1ccc(Nc2ccc(O)c3c2C(=O)c2c([N+](=O)[O-])ccc(O)c2C3=O)cc1
13.4% (inactive)

Name the reported growth inhibition value associated with the molecule CC(=O)OCC(C)(C)COC(C)=O
1.65% (inactive)

====

- ASSAY_OVERVIEW: NCI Yeast Anticancer Drug Screen. Data for the bub3 strain (AID 167)
- SETUP_CONDITIONS: S. cerevisiae bub3 mutant strain, at 50.0 µM, stronger effect = higher value
The panel holds about 79,000 compounds, 15% with a hit somewhere; the sample as a whole holds those more often.
growth inhibition by entry:
Response body: numeric value in %, unit text excluded.

Worked examples, 3 molecules total:
[[record]]
molecule = "COC(=O)C1=CN(c2ccccc2)C(=O)C1"
result_value = -8.7

[[record]]
molecule = "C=CCNC(=S)N1c2ccccc2NC(=O)CC1C (configuration not stated)"
result_value = 13.1

[[record]]
molecule = "Cc1ccc(NC(=O)C2CCN(C)CC2)cc1"
result_value = -8.7


Name the reported growth inhibition value associated with the molecule N=C(N)n1ncc2c1CCC/C2=N/N=C(N)N
29.9

====

growth inhibition by entry:
- ASSAY_OVERVIEW: NCI Yeast Anticancer Drug Screen. Data for the rad50 strain (AID 155);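 also: 0% = growth of vehicle-only cultures of the same strain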
- SETUP_CONDITIONS: S. cerevisiae rad50 strain growth inhibition; at 50.0 µM; stronger effect = higher value
Compounds without any hit were thinned out: in the full panel of roughly 79,000, 15% have a hit. Calls of active or inactive are those of the source. Cut-off read from the data, not from the text of the source: active = growth inhibition above about 70%; inactive = the rest.

Worked examples, 6 compounds total:
[[record]]
compound = "CCC(CCc1ccc(OC)c(OC)c1)C(=O)O (stereo not given)"
quantity_measured = "growth inhibition"
result_value = "1.8% (inactive)"

[[record]]
compound = "COCN1COCN(C)C1=O"
quantity_measured = "growth inhibition"
result_value = "8.5% (inactive)"

[[record]]
compound = "COC(=O)C1=C(C)N(NC(=O)Nc2ccccc2)C2(N)N(NC(=O)Nc3ccccc3)C(C)=C(C(=O)OC)C12C(=O)OC (stereo not given)"
quantity_measured = "growth inhibition"
result_value = "-8.9% (inactive)"

[[record]]
compound = "Cn1nnc2c(C(N)=S)ncn2c1=O"
quantity_measured = "growth inhibition"
result_value = "30.1% (inactive)"

[[record]]
compound = "CC[P+](C)(Cc1ccccc1)c1ccccc1 (stereo not given)"
quantity_measured = "growth inhibition"
result_value = "-0.75% (inactive)"

[[record]]
compound = "COC(=O)C1CCC(C)(C(N)=O)C1(C)C (stereo not given)"
quantity_measured = "growth inhibition"
result_value = "16% (inactive)"


Name the reported growth inhibition value associated with the compound CCOC1OCCCC1C(OCC)C(C)C (stereo not given)
39% (inactive)

Name the reported growth inhibition value associated with the compound Cc1cccc(NC(=O)NC(O)C(Cl)(Cl)Cl)c1 (stereo not given)
1.65% (inactive)

Name the reported growth inhibition value associated with the compound CCN(CC)c1cc2c3c(c1)CCCN3CCC2
-20.9% (inactive)

Name the reported growth inhibition value associated with the compound CC(=O)c1cc(Cl)ccc1OCC(O)CNc1ccc(Cl)cc1C(=O)c1ccccc1 (stereo not given)
17.6% (inactive)

Name the reported growth inhibition value associated with the compound COc1cc(OC)c2c3c(OC)cc(OC)c4c(=O)c(O)c(C[C@@H](C)O)c(c5c(C[C@@H](C)O)c(O)c(=O)c1c25)c43
66.8% (inactive)

Name the reported growth inhibition value associated with the compound CCCCCCC/C=C\C=O
7.2% (inactive)

Name the reported growth inhibition value associated with the compound O=C(OCC1C2CCC(C2)C1c1ccccc1)c1ccc([N+](=O)[O-])cc1 (stereo not given)
1.4% (inactive)

Name the reported growth inhibition value associated with the compound Cc1cc(=O)c2c3c(ccc2[nH]1)Oc1ccccc1O3
7.9% (inactive)

Name the reported growth inhibition value associated with the compound NC(=S)NNC(=O)c1cccs1
-9.9% (inactive)

Name the reported growth inhibition value associated with the compound Cc1nc(N)nc2ccccc12
3.15% (inactive)

Name the reported growth inhibition value associated with the compound C=C(NC(C)=O)C(=O)CCC(N)=O
-0.75% (inactive)

Name the reported growth inhibition value associated with the compound CC(=O)NCCCCCC(=O)O
38.9% (inactive)

Name the reported growth inhibition value associated with the compound CC1=C(CCC#N)C(=O)C(CCC#N)C(C)(C)C1 (stereo not given)
0.15% (inactive)

Name the reported growth inhibition value associated with the compound Cc1ccc(S(=O)(=O)N2CCSCCN(S(=O)(=O)c3ccc(C)cc3)CCN(S(=O)(=O)c3ccc(C)cc3)CC2)cc1
5.7% (inactive)

Name the reported growth inhibition value associated with the compound CC(=O)Nc1ccc(S(=O)(=O)Oc2noc3ccc(Br)cc23)cc1
-8.35% (inactive)

Name the reported growth inhibition value associated with the compound Nc1cc(Cl)c(N)c(Cl)c1
1.8% (inactive)

Name the reported growth inhibition value associated with the compound CC(C)(C)c1ccc(/C=N/NC(=O)c2cccnc2)cc1
0.55% (inactive)

Name the reported growth inhibition value associated with the compound CC(C)(C)C(=O)Nc1ccc(NS(=O)(=O)c2ccccc2)cc1
6.85% (inactive)

Name the reported growth inhibition value associated with the compound O=C(O)C(CO)C(CO)C(=O)O (stereo not given)
-12.9% (inactive)

====

- ASSAY_OVERVIEW: NCI Yeast Anticancer Drug Screen. Data for the sgs1 mgt1 strain (AID 161);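 also: 0% = growth of cultures given vehicle only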
- SETUP_CONDITIONS: S. cerevisiae sgs1 mgt1 strain, at 50.0 µM, stronger effect = higher value
Compounds without any hit were thinned out: in the full panel of roughly 79,000, 15% have a hit.
growth inhibition by entry:
Response body: numeric value in %, unit text excluded.

Worked examples, 3 compounds total:
[[record]]
compound = "Cc1ccc(C(N)=O)cc1"
quantity_measured = "growth inhibition"
unit_of_measurement = "%"
result_value = -1.55

[[record]]
compound = "OCC(OC/C=C/CCl)c1ccc(Cl)cc1 (stereo not given)"
quantity_measured = "growth inhibition"
unit_of_measurement = "%"
result_value = 0.2

[[record]]
compound = "C[Si](C)(C)c1ccc2c(c1O)C(=O)c1ccccc1C2=O"
quantity_measured = "growth inhibition"
unit_of_measurement = "%"
result_value = 31.9


Name the reported growth inhibition value associated with the compound COc1cc(C)c(/C=C/C(=O)N2C(=O)OC[C@@H]2c2ccccc2)c(C)c1
21.1

Name the reported growth inhibition value associated with the compound CCOC(=O)c1c(/N=C/c2cc(Br)cc(Br)c2O)sc2c1CCCC2
-13.2

Name the reported growth inhibition value associated with the compound COC(=O)c1cc2ccc1OCC#CC#CCOc1ccc(cc1C(=O)OC)OCC#CC#CCO2
7.35

Name the reported growth inhibition value associated with the compound O=C1C(=S)Nc2cccc(F)c21
33.2

Name the reported growth inhibition value associated with the compound CN(C)S(=O)(=O)C(c1ccccc1)C(O)(c1ccccc1)c1ccc(Cl)cc1 (stereo not given)
54.1

Reference for the values: PubChem BioAssay (NCI)
